The reported numbers originate from patent US6169181A.

- TARGET OR SYSTEM: HIV-1 protease (Human immunodeficiency virus type 1 group M subtype B, UniProt P04585)
- ASSAY TEXT: biochemical
- CONDITION DESCRIPTION: Table I; Dose 30.000 μM; read-out: Protease % Inhib
QUANTITY MEASURED: inhibition at 30 µM (%)
# number only, unit % dropped from output

Please report the measured inhibition at 30 µM for CCCC1(CCC)CC(O)=C(C(c2cccc(NS(=O)(=O)c3cccc4cccnc34)c2)C2CC2)C(=O)O1 (stereo not drawn) [Example 49] tested on HIV-1 protease (Human immunodeficiency virus type 1 group M subtype B, UniProt P04585).
112

Fill in: inhibition at 30 µM on HIV-1 protease (Human immunodeficiency virus type 1 group M subtype B, UniProt P04585), entry CCC(CC1CCCOC1)c1cc(O)c(C(c2cccc(NS(=O)(=O)c3cccc4cccnc34)c2)C2CC2)c(=O)o1 (stereo not drawn) [Example 145A]
114

Send back HIV-1 protease (Human immunodeficiency virus type 1 group M subtype B, UniProt P04585) inhibition at 30 µM of CCCC1(CCc2ccc(F)cc2)CC(O)=C(C(c2cccc(NS(=O)(=O)c3cn(C)cn3)c2)C(C)(C)C)C(=O)O1 (stereo not drawn) [Example 252] only.
91.4

###

- TARGET OR SYSTEM: HIV-1 protease (Human immunodeficiency virus type 1 group M subtype B)
- ASSAY TEXT: biochemical
- CONDITION DESCRIPTION: Table I; Dose 30.000 μM; read-out: Protease % Inhib
QUANTITY MEASURED: inhibition at 30 µM (%)
Report the figure in % without appending any unit label.

Quickly give me recorded inhibition at 30 µM for Cc1ccc(S(=O)(=O)Cc2cccc(C(c3c(O)c4c(oc3=O)CCCCCC4)C3CC3)c2)cc1 (centres unmarked) [Example 13]
104

Indicate the recorded inhibition at 30 µM value for this compound: CCCC1(CCc2ccc(F)cc2)CC(O)=C(C(c2cccc(NS(=O)(=O)c3ccc(C#N)cn3)c2)C(C)(C)C)C(=O)O1 (centres unmarked) [Example 253]
98.5

Specify measured inhibition at 30 µM for CN(c1cccc(C(c2c(O)c3c(oc2=O)CCCCCC3)C2CC2)c1)S(=O)(=O)c1ccccc1 (centres unmarked) [Example 194] .
85.2

Give the reported inhibition at 30 µM for this compound. CCC(CC1CCOCC1)c1cc(O)c(C(c2cccc(NS(=O)(=O)c3nccn3C)c2)C2CC2)c(=O)o1 (centres unmarked) [Example 145]
88

Supply reported inhibition at 30 µM belonging to this compound: O=c1oc(C(CC2CC2)CC2CC2)cc(O)c1C(c1cccc(NS(=O)(=O)c2ncc[nH]2)c1)C1CC1 (centres unmarked) [Example 102]
108

For the compound CCCC1(CCC)CC(O)=C(C(CC)c2cccc(NS(=O)(=O)c3ccc(F)cc3)c2)C(=O)O1 (centres unmarked) [Example 45] , give its measured inhibition at 30 µM value.
67.5

Look up inhibition at 30 µM of CCCC1(CCC)CC(O)=C(C(c2cccc(NS(=O)(=O)c3cn(C)cn3)c2)C2CC2)C(=O)O1 (single isomer, unassigned) [Example 56] and report it.
111

Answer with the recorded inhibition at 30 µM of CCCC1(CCc2ccccc2)CC(O)=C(C(c2cccc(NS(=O)(=O)c3ccc(C#N)cc3)c2)C2CC2)C(=O)O1 (centres unmarked) [Example 58] only.
89.8

Give inhibition at 30 µM for the following compound: COCCOCCOCCOc1ccc2c(O)c(C(c3cccc(NS(=O)(=O)c4cccc5cccnc45)c3)C3CC3)c(=O)oc2c1 (centres unmarked) [Example 153]
101

Give reported inhibition at 30 µM value for CN(c1cccc(C(c2c(O)c3c(oc2=O)CCCCCC3)C2CC2)c1)S(=O)(=O)c1ccc(F)cc1 (centres unmarked) [Example 193]
103

Please report inhibition at 30 µM for the following compound: CCC(Cc1ccccc1)c1cc(O)c(C(c2cccc(NS(=O)(=O)c3cn(C)cn3)c2)C2CC2)c(=O)o1 (centres unmarked) [Example 136]
102

State its inhibition at 30 µM for this compound: CCC(Cc1ccccc1)c1cc(O)c(C(c2cccc(NS(=O)(=O)c3ccc([N+](=O)[O-])cc3)c2)C2CC2)c(=O)o1 (centres unmarked) [Example 150]
109

Complete the entry with inhibition at 30 µM for CCCC1(CCC)CC(O)=C(C(CC)c2cccc(NS(=O)(=O)c3ccc(C#N)cn3)c2)C(=O)O1 (centres unmarked) [Example 262]
89.2

Indicate the recorded inhibition at 30 µM value for this compound: CCC(CCN=[N+]=[N-])c1cc(O)c(C(c2cccc(NS(=O)(=O)c3cn(C)cn3)c2)C2CC2)c(=O)o1 (centres unmarked) [Example 109]
109
